Reference for the values: the supplement of paper PMC7411054

Tested on: WPMY1-CANX-COX4
method description: lowest phenotypically active concentration; higher = less potent
details: treatment time: 24 h
readout type: lowest phenotypically active concentration

Entry under test: CC(C)NCCCn1c(Sc2cc3c(cc2I)OCO3)nc2c(N)ncnc21 . Its lowest phenotypically active concentration was ≤ 0.3 µM

Entry under test: O=c1cc(N2CCOCC2)oc2c(-c3ccccc3)cccc12 . Its lowest phenotypically active concentration was 9 µM

Entry under test: CN(C)C1CCN(C(=O)c2ccc(NC(=O)Nc3ccc(-c4nc(N5CCOCC5)nc(N5CCOCC5)n4)cc3)cc2)CC1 . Its lowest phenotypically active concentration was ≤ 0.3 µM

Entry under test: COc1cc(/C=C/c2ccc(OC)cc2OC)cc(OC)c1 . Its lowest phenotypically active concentration was 1 µM

Entry under test: C[C@@H](CN1CCC(n2c(=O)[nH]c3cc(Cl)ccc32)CC1)NC(=O)c1ccc2ccccc2c1 . Its lowest phenotypically active concentration was 9 µM

---

Hi there, I'd appreciate the recorded lowest phenotypically active concentration for every entry that follows.
Test system: WPMY1-TP53BP1-CLTA
method description: lowest phenotypically active concentration; higher = less potent
details: treatment time: 24 h

Entry under test: COc1cc([C@@H]2c3cc4c(cc3[C@@H](O[C@@H]3O[C@@H]5CO[C@@H](C)O[C@H]5[C@H](O)[C@H]3O)[C@H]3COC(=O)[C@H]23)OCO4)cc(OC)c1O [etoposide] . Its lowest phenotypically active concentration was 1 µM

Entry under test: Clc1ccc(N/N=C(\c2ccccc2)c2ccccn2)nc1 . Its lowest phenotypically active concentration was 1 µM

Entry under test: COc1cc2c(NC3CCN(C(C)C)CC3)nc(N3CCC(F)(F)CC3)nc2cc1OCCCN1CCCC1 . Its lowest phenotypically active concentration was 1 µM

Entry under test: Cc1cc(Nc2cc(N3CCN(C)CC3)nc(Sc3ccc(NC(=O)C4CC4)cc3)n2)[nH]n1 . Its lowest phenotypically active concentration was ≤ 0.3 µM

Entry under test: CC(C)(C)c1cc(C(=O)/C=C/c2ccc(C(=O)O)cc2)cc(C(C)(C)C)c1 . Its lowest phenotypically active concentration was ≤ 0.3 µM

Entry under test: Cc1ccc(S(=O)(=O)c2ccc([N+](=O)[O-])o2)cc1 . Its lowest phenotypically active concentration was 3 µM

Entry under test: CC(=O)O[C@@]12CO[C@@H]1C[C@H](O)[C@@]1(C)C(=O)[C@H](O)C3=C(C)[C@@H](OC(=O)[C@H](O)[C@@H](NC(=O)OC(C)(C)C)c4ccccc4)C[C@](O)([C@@H](OC(=O)c4ccccc4)[C@H]21)C3(C)C . Its lowest phenotypically active concentration was ≤ 0.3 µM

---

System: WPMY1-TP53BP1-CLTA
method description: lowest phenotypically active concentration; higher = less potent
details: treatment time: 24 h
Structures can show the parent of a compound that is named as a salt.
readout type: lowest phenotypically active concentration (µM)
Lab book: enter the figure in µM, no units written.

Entry under test: CC(C)(C)c1cc(NC(=O)Nc2ccc(-c3cn4c(n3)sc3cc(OCCN5CCOCC5)ccc34)cc2)no1 . Its lowest phenotypically active concentration was 9

Entry under test: CC(C)n1c(/C=C/[C@@H](O)C[C@@H](O)CC(=O)O)c(-c2ccc(F)cc2)c2ccccc21 . Its lowest phenotypically active concentration was 9

Entry under test: COc1ccccc1S(=O)(=O)Nc1ccc2c(c1)CN(C)C(=O)N2 . Its lowest phenotypically active concentration was 9

Entry under test: CN(C)CCCN1c2ccccc2Sc2ccc(Cl)cc21 . Its lowest phenotypically active concentration was 9

Entry under test: OC[C@H]1O[C@@H](n2cnc3c(NCc4ccco4)ncnc32)[C@H](O)[C@@H]1O [Kinetin riboside] . Its lowest phenotypically active concentration was 1

Entry under test: CC(C)(C)c1cc(/C=C(\C#N)C(N)=S)cc(C(C)(C)C)c1O . Its lowest phenotypically active concentration was 9

Entry under test: Fc1ccc(Cl)cc1-c1nc(Nc2ccncc2)c2nccnc2n1 . Its lowest phenotypically active concentration was 9

Entry under test: CC(=O)Nc1ccc(C(=O)Nc2ccccc2N)cc1 . Its lowest phenotypically active concentration was 3

Entry under test: CN1CCN(C(=O)CN[C@H]2C[C@@H]2c2ccc(OCc3ccccc3)cc2)CC1 [RN 1 dihydrochloride] . Its lowest phenotypically active concentration was 9

Entry under test: O=C(CCCc1ccc(-c2ccccc2F)cc1)Nc1ccc(O)cc1 . Its lowest phenotypically active concentration was 1

Entry under test: Cc1noc(C)c1Cn1cc(C#N)c2cc(Oc3ccc(NC(=O)[C@@H]4CCCN4)cc3)ccc21 . Its lowest phenotypically active concentration was 9

Entry under test: CC(C)NCC(O)COc1ccc(CC(N)=O)cc1 (centres undefined) . Its lowest phenotypically active concentration was 9

Entry under test: Cc1noc(C)c1-c1ccc2c(c1)nc(CCc1ccc(OCCCN(C)C)cc1)n2CCN1CCOCC1 . Its lowest phenotypically active concentration was 9

Entry under test: Cc1nnc(-c2ccc3occ(-c4ccc(S(C)=O)cc4)c3c2)o1 (centres undefined) . Its lowest phenotypically active concentration was 9

Entry under test: O=c1c(-c2ccc(O)cc2)coc2cc(O[C@@H]3O[C@H](CO)[C@@H](O)[C@H](O)[C@H]3O)cc(O)c12 . Its lowest phenotypically active concentration was 9

---

System: A549-TUBA1B-RELA
method description: phenotypically active (imaging signature differs from DMSO and reproducible) at any of 0.3-9 uM (binary (1 = active, 0 = inactive)); higher = active
details: treatment time: 24 h
Structures can show the parent of a compound that is named as a salt.
Hi there, I'd appreciate the recorded phenotypically active for every entry that follows.
Answer using only a numeral; do not append any unit.

Entry under test: CC(=C/[C@@H](C)C(=O)c1ccc(N(C)C)cc1)/C=C/C(=O)NO . Its phenotypically active was 1

Entry under test: O=C(O)[C@]1(Cc2cccc(Nc3nccs3)n2)CC[C@@H](Oc2cccc(Cl)c2F)CC1 . Its phenotypically active was 1

Entry under test: COc1ccc([C@@H]2CNC(=O)C2)cc1OC1CCCC1 [(R)-(-)-Rolipram] . Its phenotypically active was 0

Entry under test: O=C(O)CCCc1ccccc1 [Sodium 4-Phenylbutyrate] . Its phenotypically active was 0

Entry under test: COc1cc(C#N)ccc1S(=O)(=O)Nc1ccc2c(c1)cc(C)c(=O)n2C . Its phenotypically active was 0

Entry under test: O=C1NCCCC1C(=O)NCCc1c[nH]c2ccc(O)cc12 (stereo not given) . Its phenotypically active was 0

Entry under test: CC[C@H](CO)Nc1nc(Nc2cccc(-c3ccccn3)c2)c2ncn(C(C)C)c2n1 [(R)-DRF053 dihydrochloride] . Its phenotypically active was 0

Entry under test: CN1C(=O)OC(C)(C)C1=O . Its phenotypically active was 0

Entry under test: CC(=O)N1CCN(C)CC1 [1-Acetyl-4-methylpiperazine hydrochloride] . Its phenotypically active was 0

Entry under test: Clc1ccc(N/N=C(\c2ccccc2)c2ccccn2)nc1 . Its phenotypically active was 1

---

Tested on: A549-ACTB-RAB5A
method description: phenotypically active (imaging signature differs from DMSO and reproducible) at any of 0.3-9 uM (binary (1 = active, 0 = inactive)); higher = active
details: treatment time: 24 h
Pick one and only one: active, inactive

Ask: Give the logged outcome of this assay for the following molecule: OCCOCCN1CCN(C2=Nc3ccccc3Sc3ccccc32)CC1 [Quetiapine hemifumarate]
Result: inactive

Ask: Give the logged outcome of this assay for the following molecule: COc1cc(N2CCN(C)CC2)ccc1Nc1nccc(-c2cn(C)c3cnccc23)n1
Result: active

Ask: Give the logged outcome of this assay for the following molecule: COc1cc2nc(-c3cc(F)ccc3O)nc(N[C@@H]3CNC[C@H]3C(C)(C)O)c2cc1OC
Result: active

Ask: Give the logged outcome of this assay for the following molecule: NC(=O)C(c1ccccc1)(c1ccc(F)cc1)c1ccc(F)cc1
Result: inactive

Ask: Give the logged outcome of this assay for the following molecule: COCc1nc2c([nH]1)c(=O)n(C)c(=O)n2CC(C)C
Result: inactive

---

Test system: HepG2-TUBA1B-RELA
method description: phenotypically active (imaging signature differs from DMSO and reproducible) at any of 0.3-9 uM (binary (1 = active, 0 = inactive)); higher = active
details: treatment time: 24 h
Structures can show the parent of a compound that is named as a salt.
readout type: phenotypically active
Answer using only a numeral; do not append any unit.

Entry under test: CC[C@H](Nc1ncnc2[nH]cnc12)c1nc2cccc(F)c2c(=O)n1-c1ccccc1 . Its phenotypically active was 0

Entry under test: C[C@@H](Nc1ncnc2[nH]c(-c3ccc(O)cc3)cc12)c1ccccc1 [PKI 166 hydrochloride] . Its phenotypically active was 1

Entry under test: COc1cc2c(cc1OC)-c1c/c(=N/c3c(C)cc(C)cc3C)n(C)c(=O)n1CC2 [Trequinsin hydrochloride] . Its phenotypically active was 0

Entry under test: CC(C)(C(=O)O)c1ccc(C(O)CCCN2CCC(C(O)(c3ccccc3)c3ccccc3)CC2)cc1 (stereo not drawn) [fexofenadine] . Its phenotypically active was 0

Entry under test: Nc1ncnc2c1ncn2[C@@H]1O[C@H](CO)[C@@H](O)[C@H]1O . Its phenotypically active was 0

Entry under test: C=C(C)[C@@H]1CC[C@]2(CO)CC[C@]3(C)[C@H](CC[C@@H]4[C@@]5(C)CC[C@H](O)C(C)(C)[C@@H]5CC[C@]43C)[C@@H]12 . Its phenotypically active was 0

Entry under test: COc1ccc2c(Oc3ccc(NC(=O)c4c(C)n(CC(C)(C)O)n(-c5ccccc5)c4=O)nc3)ccnc2c1 . Its phenotypically active was 1

Entry under test: C=C1C[C@]23C[C@@]1(O)CC[C@H]2[C@@]12C=C[C@H](O)[C@](C)(C(=O)O1)[C@H]2[C@@H]3C(=O)O . Its phenotypically active was 0

Entry under test: Cn1cc(-c2cnc3ccc4ccc(CS(=O)(=O)NCc5ccccn5)cc4c(=O)c3c2)cn1 . Its phenotypically active was 0

Entry under test: CN1c2ccc([N+](=O)[O-])cc2N=C(c2ccc(C(=O)O)cc2)c2cc3c(cc21)C(C)(C)CCC3(C)C . Its phenotypically active was 1

Entry under test: CCC(C)(C)C(=O)O[C@H]1C[C@@H](C)C=C2C=C[C@H](C)[C@H](CC[C@@H]3C[C@@H](O)CC(=O)O3)[C@H]21 . Its phenotypically active was 1

Entry under test: CC[C@@H](N)CNc1ccnc(-c2cc(-c3cnn(C)c3)ccc2O)n1 . Its phenotypically active was 1

Entry under test: CC#CC(=O)N1CCC[C@H]1c1nc(-c2ccc(C(=O)Nc3ccccn3)cc2)c2c(N)nccn12 . Its phenotypically active was 0

Entry under test: O=C(O)C[C@H](O)C[C@H](O)/C=C/c1c(C2CC2)nc2ccccc2c1-c1ccc(F)cc1 . Its phenotypically active was 1

Entry under test: N[C@@H](Cc1ccc(O)c(O)c1)C(=O)O . Its phenotypically active was 0

Entry under test: C[C@]12CCC(=O)C=C1CC[C@@H]1[C@@H]2[C@@H](O)C[C@@]2(C)[C@H]1CC[C@]2(O)C(=O)CO [hydrocortisone] . Its phenotypically active was 0

Entry under test: CC(=O)NCCCS(=O)(=O)O [acamprosate] . Its phenotypically active was 0

Entry under test: CN(C)C(=N)NC(=N)N [Metformin hydrochloride] . Its phenotypically active was 0

Entry under test: CCOC(=O)C1=C(C)NC(=S)N[C@H]1c1cccc(O)c1 . Its phenotypically active was 0

Entry under test: Cc1nc2sccn2c(=O)c1CCN1CCC(=C(c2ccc(F)cc2)c2ccc(F)cc2)CC1 . Its phenotypically active was 1

Entry under test: CC(C)(C)c1cnc(CSc2cnc(NC(=O)C3CCNCC3)s2)o1 . Its phenotypically active was 1

Entry under test: CCc1ccc(/C=C/C(=O)Nc2ccc(C(C)=O)cc2)o1 . Its phenotypically active was 0

Entry under test: O=C1CCc2c(ccc3ccccc23)O1 . Its phenotypically active was 0

Entry under test: CCN(CC)CCCC(C)Nc1ccnc2cc(Cl)ccc12 (stereo not drawn) . Its phenotypically active was 1

Entry under test: COC(=O)c1c(-c2cc(OC)c(OC)c(OC)c2)c2ccnc(OCc3ncccn3)c2c(=O)n1Cc1ccnc(C)c1 [T 0156 hydrochloride] . Its phenotypically active was 0

Entry under test: CN(C)CCCSc1ccccc1NC(=O)/C=C/c1ccccc1 [Cinanserin hydrochloride] . Its phenotypically active was 0

Entry under test: Cc1ccc(C(=O)c2ccc(CC(=O)O)n2C)cc1 . Its phenotypically active was 0

Entry under test: CCOC(=O)[C@H](CCc1ccccc1)N[C@@H](C)C(=O)N1Cc2ccccc2C[C@H]1C(=O)O . Its phenotypically active was 0

Entry under test: O=C1N(c2ccccc2)c2ccccc2C1(Cc1ccncc1)Cc1ccncc1 . Its phenotypically active was 0

Entry under test: Cc1nnc(-c2ccc3occ(-c4ccc(S(C)=O)cc4)c3c2)o1 (stereo not drawn) . Its phenotypically active was 1

Entry under test: C#C[C@]1(O)CC[C@H]2[C@@H]3CCc4cc(OC5CCCC5)ccc4[C@H]3CC[C@@]21C . Its phenotypically active was 0

Entry under test: O=C(Nc1cc(C(F)(F)F)cc(C(F)(F)F)c1)c1cnc(Cl)nc1C(F)(F)F . Its phenotypically active was 0

Entry under test: C[C@]12CC[C@@H]3c4ccc(O)cc4CC[C@H]3[C@@H]1CC[C@@H]2OC(=O)CCC1CCCC1 [estradiol cypionate] . Its phenotypically active was 0
